Biological target: MMP-9 (Homo sapiens)
Sequence (P14780 94-707): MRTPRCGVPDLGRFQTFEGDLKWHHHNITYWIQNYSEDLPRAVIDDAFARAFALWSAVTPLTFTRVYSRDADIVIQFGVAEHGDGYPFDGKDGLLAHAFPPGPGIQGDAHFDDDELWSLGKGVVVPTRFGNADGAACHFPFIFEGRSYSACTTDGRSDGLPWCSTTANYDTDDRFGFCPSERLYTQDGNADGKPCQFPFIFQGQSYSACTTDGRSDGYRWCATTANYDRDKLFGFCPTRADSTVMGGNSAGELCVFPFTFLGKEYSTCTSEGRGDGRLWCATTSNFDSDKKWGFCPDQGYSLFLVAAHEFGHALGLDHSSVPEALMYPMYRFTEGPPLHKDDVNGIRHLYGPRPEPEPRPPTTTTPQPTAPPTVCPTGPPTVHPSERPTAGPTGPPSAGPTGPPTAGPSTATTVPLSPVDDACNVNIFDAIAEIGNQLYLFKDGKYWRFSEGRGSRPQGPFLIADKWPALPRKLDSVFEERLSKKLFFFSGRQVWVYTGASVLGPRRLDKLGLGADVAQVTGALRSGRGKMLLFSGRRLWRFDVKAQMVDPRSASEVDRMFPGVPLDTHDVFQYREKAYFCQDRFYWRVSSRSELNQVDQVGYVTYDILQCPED
Where a name gives a salt, the structure may show the parent alone.
Readings of IC50 for the listed molecules

Please review the entries below; each comes with its answer.
Query block: MMP-9 (Homo sapiens) / IC50 / CC#CCOc1ccc(S(=O)(=O)C2(C(=O)NO)CCN(Cc3ccc(Br)cc3)CC2)cc1 [Example 1] : value?
Result block: 385 nM

Query block: Then CC#CCOc1ccc(S(=O)(=O)C2(C(=O)NO)CCN(C(CC)CC)CC2)cc1 [Example 27] ?
Result block: 1540 nM

Query block: Then CC#CCOc1ccc(S(=O)(=O)C2(C(=O)NO)CCN(Cc3ccccc3)CC2)cc1 [Example 4] ?
Result block: 148 nM

Query block: Then CC#CCOc1ccc(S(=O)(=O)C2(C(=O)NO)CCN(Cc3ccc(OC)cc3)CC2)cc1 [Example 2] ?
Result block: 164 nM

Query block: Then CC#CCOc1ccc(S(=O)(=O)C2(C(=O)NO)CCN(C(=O)N3CCCC3)CC2)cc1 [Example 67] ?
Result block: 853 nM

Next:
Query block: MMP-9 (Homo sapiens) / IC50 / CC#CCOc1ccc([S+]([O-])C2(C(=O)NO)CCN(Cc3ccc(Br)cc3)CC2)cc1 (centres unmarked) [Example 82, hydrochloride] : value?
Result block: 125 nM

Query block: Then CC#CCOc1ccc(SCC2(C(=O)NO)CCNCC2)cc1 [Example 31] ?
Result block: > 10000 nM

Query block: Then CC#CCOc1ccc(S(=O)(=O)C2(C(=O)NO)CCN(C(C)=O)CC2)cc1 [Example 64] ?
Result block: 560 nM
